These entries and their values trace back to patent EP0545103A1.

- Tested on: Spodoptera eridania, 3rd instar larvae, southern armyworm
- assay.protocol: Southern armyworm 7-day residual test
- Type: in vivo
- particulars: R designates Residual: 7-day residual foliage; rating at 5 days; concentration not given
Form field: ARMYWORM Day 5 R (one value per entry).
property: ARMYWORM Day 5 R

* N#Cc1c(Br)c(C(F)(F)F)n(CSC2=NCCN2)c1-c1ccc(Cl)cc1 | 9 (100% kill)
* N#Cc1c(Br)c(C(F)(F)F)n(CSC2=NCCS2)c1-c1ccc(Cl)cc1 | 9 (100% kill)
* CN(C)C(=S)SCn1c(Cl)c(Cl)c(C#N)c1-c1ccc(Cl)c(Cl)c1 | 0
* CCOC(=S)SCn1c(-c2ccc(Cl)cc2)c(C#N)c(Br)c1C(F)(F)F | 9 (100% kill)
* CN(C)C(=S)SCn1c(Cl)c(C#N)c(Cl)c1-c1ccc(Cl)c(Cl)c1 | 9 (100% kill)
* FC(F)(F)c1c(Br)c(-c2ccc(Cl)c(Cl)c2)n(CSC2=NCCCN2)c1C(F)(F)F | 9 (100% kill)
* N#Cc1c(Br)c(Br)n(CSc2ccccc2)c1-c1ccc(C(F)(F)F)cc1 | 0
* N#Cc1c(Br)c(C(F)(F)F)n(CS(=O)(=O)c2ccccc2)c1-c1ccc(Cl)cc1 | 9 (100% kill)

---

- Test system: Tetranychus urticae (OP-resistant strain), 2-spotted spider mite
- assay.protocol: 2-spotted spider mite test, dipped infested limabean plants
- Format: in vivo
- particulars: 300 ppm; rating after 5 days
property: OP-RESISTANT MITES Nymph

- N#Cc1c(Cl)c(C(F)(F)F)n(CSC(=N)N)c1-c1ccc(Cl)cc1 [Example 3]: 9 (100% kill)
- N#Cc1c(Cl)c(C(F)(F)F)n(CSC2=NCCCN2)c1-c1ccc(Cl)cc1 [Example 5]: 0
- CC(C)OC(=S)SCn1c(-c2ccc(Cl)cc2)c(C#N)c(Cl)c1C(F)(F)F [Example 22]: 9 (100% kill)
- CN(C)C(=S)SCn1c(-c2ccc(Cl)cc2)c(C#N)c(Cl)c1C(F)(F)F [Example 21]: 9 (100% kill)
- CCOC(=S)SCn1c(-c2ccc(Cl)cc2)c(C#N)c(Cl)c1C(F)(F)F [Example 23]: 9 (100% kill)
- N#Cc1c(Br)c(C(F)(F)F)n(CSC2=NCCCN2)c1-c1ccc(Cl)cc1 [Example 8]: 0
- CSCn1c(-c2ccc(Cl)cc2)c(C#N)c(Br)c1C(F)(F)F [Example 25]: 0
- N#Cc1c(Br)c(C(F)(F)F)n(CSC2=NCCN2)c1-c1ccc(Cl)cc1 [Example 7]: 0

---

Form field: ARMYWORM Day 3 (one value per entry).
- System: Spodoptera eridania, 3rd instar larvae, southern armyworm
- assay.protocol: Southern armyworm 3rd instar test, dipped limabean leaf
- Format: in vivo
- particulars: 10 ppm; rating at 3 days
- Experimental: Test solutions are prepared by dissolving the test compound in a 35% acetone in water mixture to give a concentration of 10,000 ppm. Subsequent dilutions are made with water as needed. Spodoptera eridania, 3rd instar larvae, southern armyworm A Sieva limabean leaf expanded to 7-8 cm in length is dipped in the test solution with agitation for 3 seconds and allowed to dry in a hood. […]
property: ARMYWORM Day 3

* CCOC(=S)SCn1c(Cl)c(C#N)c(Cl)c1-c1ccc(Cl)c(Cl)c1 | 9 (100% kill)
* CC(C)OC(=S)SCn1c(-c2ccc(Cl)cc2)c(C#N)c(Br)c1C(F)(F)F | 9 (100% kill)
* CCOC(=S)SCn1c(-c2ccc(Cl)c(Cl)c2)c(Br)c(C(F)(F)F)c1C(F)(F)F | 9 (100% kill)

---

Form field: OP-RESISTANT MITES Adult (one value per entry).
- Tested on: Tetranychus urticae (OP-resistant strain), 2-spotted spider mite
- assay.protocol: 2-spotted spider mite test, dipped infested limabean plants
- Assay type: in vivo
- Parameters: key: 0: no effect; 10-25% kill; 26-35% kill; 36-45% kill; 46-55% kill; 56-65% kill; 66-75% kill; 76-85% kill; 86-99% kill; 9: 100% kill
- particulars: 100 ppm; adult mites; rating scale 0-9
property: OP-RESISTANT MITES Adult

* CN(C)C(=S)SCn1c(-c2ccc(Cl)c(Cl)c2)c(Br)c(C(F)(F)F)c1C(F)(F)F | 0
* FC(F)(F)c1c(Br)c(-c2ccc(Cl)c(Cl)c2)n(CSC2=NCCCN2)c1C(F)(F)F | 0
* CN(C)C(=S)SCn1c(Cl)c(C#N)c(Cl)c1-c1ccc(Cl)c(Cl)c1 | 0

---

- Tested on: Spodoptera eridania, 3rd instar larvae, southern armyworm
- assay.protocol: Southern armyworm 7-day residual test
- Type: in vivo
- particulars: R designates Residual: 7-day residual foliage; rating at 3 days; concentration not given
property: ARMYWORM Day 3 R

* CN(C)C(=S)SCn1c(Cl)c(C#N)c(Cl)c1-c1ccc(Cl)c(Cl)c1 [Example 36] | 9 (100% kill)
* N#Cc1c(Br)c(C(F)(F)F)n(CSc2ncc[nH]2)c1-c1ccc(Cl)cc1 [Example 1] | 9 (100% kill)
* CSCn1c(-c2ccc(Cl)cc2)c(C#N)c(Br)c1C(F)(F)F [Example 25] | 9 (100% kill)
* N#Cc1c(Br)c(C(F)(F)F)n(CSc2nc3ccccc3o2)c1-c1ccc(Cl)cc1 [Example 6] | 9 (100% kill)
* CCOC(=S)SCn1c(Cl)c(C#N)c(Cl)c1-c1ccc(Cl)c(Cl)c1 [Example 37] | 9 (100% kill)
* N#Cc1c(Br)c(C(F)(F)F)n(CSC2=NCCS2)c1-c1ccc(Cl)cc1 [Example 16] | 9 (100% kill)
* CN(C)C(=S)SCn1c(Br)c(Br)c(C#N)c1Br [Example 31] | 9 (100% kill)
* N#Cc1c(Br)c(Br)n(CSC(=N)N)c1Br [Example 20] | 6 (66-75% kill)
* CCN=C(NCC)SCn1c(-c2ccc(Cl)cc2)c(C#N)c(Br)c1C(F)(F)F [Example 12] | 9 (100% kill)
* FC(F)(F)c1c(Br)c(-c2ccc(Cl)c(Cl)c2)n(CSC2=NCCCN2)c1C(F)(F)F [Example 17] | 9 (100% kill)
* CN(C)C(=S)SCn1c(-c2ccc(Cl)c(Cl)c2)c(Br)c(C(F)(F)F)c1C(F)(F)F [Example 33] | 9 (100% kill)
* N=C(N)SCn1c(-c2ccc(Cl)c(Cl)c2)c(Br)c(C(F)(F)F)c1C(F)(F)F [Example 18] | 9 (100% kill)
* CCOC(=S)SCn1c(-c2ccc(Cl)c(Cl)c2)c(Br)c(C(F)(F)F)c1C(F)(F)F [Example 35] | 9 (100% kill)
* CCOC(=S)SCn1c(Cl)c(Cl)c(C#N)c1-c1ccc(Cl)c(Cl)c1 [Example 28] | 9 (100% kill)
* N#Cc1c(Br)c(C(F)(F)F)n(CSc2nc3ccccc3[nH]2)c1-c1ccc(Cl)cc1 [Example 9] | 9 (100% kill)
* N#Cc1c(Br)c(C(F)(F)F)n(CS(=O)(=O)c2ccccc2)c1-c1ccc(Cl)cc1 [Example 46] | 4 (46-55% kill)
* N#Cc1c(Br)c(Br)n(CSC2=NCCCN2)c1Br [Example 13] | 0
* N#Cc1c(Br)c(C(F)(F)F)n(CSC2=NCCCCN2)c1-c1ccc(Cl)cc1 [Example 11] | 9 (100% kill)

---

Form field: OP-RESISTANT MITES Egg (one value per entry).
- Test system: Tetranychus urticae (OP-resistant strain), 2-spotted spider mite
- assay.protocol: 2-spotted spider mite test, dipped infested limabean plants
- Format: in vivo
- Set-up: key: 0: no effect; 10-25% kill; 26-35% kill; 36-45% kill; 46-55% kill; 56-65% kill; 66-75% kill; 76-85% kill; 86-99% kill; 9: 100% kill
- particulars: 300 ppm; rating after 5 days
property: OP-RESISTANT MITES Egg

• CN(C)C(=S)SCn1c(-c2ccc(Cl)cc2)c(C#N)c(Cl)c1C(F)(F)F [Example 21] = 0
• N#Cc1c(Br)c(C(F)(F)F)n(CSC2=NCCN2)c1-c1ccc(Cl)cc1 [Example 7] = 0
• CSCn1c(-c2ccc(Cl)cc2)c(C#N)c(Br)c1C(F)(F)F [Example 25] = 0
• CN=C(NC)SCn1c(-c2ccc(Cl)cc2)c(C#N)c(Cl)c1C(F)(F)F [Example 2] = 0
• CC(C)OC(=S)SCn1c(-c2ccc(Cl)cc2)c(C#N)c(Cl)c1C(F)(F)F [Example 22] = 0
• CSCn1c(Br)c(Br)c(C#N)c1-c1ccc(C(F)(F)F)cc1 [Example 44] = 0
• N#Cc1c(Br)c(C(F)(F)F)n(CSC2=NCCCN2)c1-c1ccc(Cl)cc1 [Example 8] = 0
• N#Cc1c(Cl)c(C(F)(F)F)n(CSC2=NCCN2)c1-c1ccc(Cl)cc1 [Example 4] = 9 (100% kill)
• CN(C)C(=S)SCn1c(-c2ccc(Cl)cc2)c(C#N)c(Br)c1C(F)(F)F [Example 24] = 9 (100% kill)
• CCOC(=S)SCn1c(-c2ccc(Cl)cc2)c(C#N)c(Cl)c1C(F)(F)F [Example 23] = 0
• N#Cc1c(Cl)c(C(F)(F)F)n(CSC2=NCCCN2)c1-c1ccc(Cl)cc1 [Example 5] = 0
